- target.system: Proteasome Macropain subunit MB1 (Homo sapiens)
- Sequence (P28074 whole entry): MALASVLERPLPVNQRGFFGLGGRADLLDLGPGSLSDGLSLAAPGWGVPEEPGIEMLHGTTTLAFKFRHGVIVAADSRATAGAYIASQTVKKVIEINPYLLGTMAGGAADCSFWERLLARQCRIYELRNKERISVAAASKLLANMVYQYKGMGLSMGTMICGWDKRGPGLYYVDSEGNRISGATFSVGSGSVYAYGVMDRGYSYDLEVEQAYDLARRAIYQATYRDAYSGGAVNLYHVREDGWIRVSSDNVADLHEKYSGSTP
- experiment.description: Inhibition of chymotrypsin-like activity of human 20S proteasome beta5 subunit using Suc-LLVY-Glo as substrate incubated for 2 hrs followed by substrate addition and measured for 10 mins by bioluminescent assay
Documented pIC50 across a set of molecules
As a rule, pIC50 stands for the negative log10 of the concentration, concentration in M.

INSERT INTO measurements (smiles_code, readout_number) VALUES
  ('COc1ccc(C[C@H](NC(=O)OC(C)(C)C)C(=O)N[C@@H](C)C(=O)N[C@@H](CC(C)C)C(=O)c2ccco2)cc1', 4.92);

Exam item: Requested field: pIC50. Item: `CC(C)C[C@H](NC(=O)[C@H](Cc1ccc(O)cc1)NC(=O)[C@H](Cc1ccc(Cl)cc1)NC(=O)OC(C)(C)C)C(=O)c1ccco1`
Marked response: 5.14

Origin of the recorded values: ChEMBL document CHEMBL4680218
